assay.comment: Antiproliferative activity against human PC3 cells after 48 hrs by MTT assay
Type: functional, cell-based
condition.summary: PC-3, 48 h
pIC50: −log10 of the molar value.
property.label: pIC50

1) C[C@H](NC(=O)OC(C)(C)C)C(=O)O[C@H]1CC[C@]2(C)[C@H]3C[C@@H](O)[C@@H]4[C@@H]([C@](C)(O)CCCC(C)(C)O)CC[C@@]4(C)[C@]3(C)CC[C@H]2C1(C)C 4.66
2) CC(C)(O)CCC[C@@](C)(O)[C@H]1CC[C@]2(C)[C@@H]1[C@H](O)C[C@@H]1[C@@]3(C)CC[C@H](OC(=O)[C@H](Cc4ccc(O)cc4)NC(=O)OC(C)(C)C)C(C)(C)[C@@H]3CC[C@]12C 4.60

----------
assay.comment: Antiproliferative activity against human PC3 cells after 48 hrs by MTT assay
Format: functional, cell-based
condition.summary: PC-3, 48 h
pIC50: −log10 of the molar value.
Recorded measurements of pIC50, one per entry
property.label: pIC50

1) CC(C)(O)CCC[C@@](C)(O)[C@H]1CC[C@]2(C)[C@@H]1[C@H](OC(=O)[C@H](Cc1cnc[nH]1)NC(=O)OC(C)(C)C)C[C@@H]1[C@@]3(C)CC[C@H](O)C(C)(C)[C@@H]3CC[C@]12C 4.07
2) CC(C)(O)CCC[C@@](C)(O)[C@H]1CC[C@]2(C)[C@@H]1[C@H](O)C[C@@H]1[C@@]3(C)CC[C@H](OC(=O)[C@@H](N)Cc4cnc[nH]4)C(C)(C)[C@@H]3CC[C@]12C 5.00
3) CC[C@H](C)[C@H](NC(=O)OC(C)(C)C)C(=O)O[C@H]1CC[C@]2(C)[C@H]3C[C@@H](O)[C@@H]4[C@@H]([C@](C)(O)CCCC(C)(C)O)CC[C@@]4(C)[C@]3(C)CC[C@H]2C1(C)C 4.62
4) C[C@@H](O)[C@H](NC(=O)OC(C)(C)C)C(=O)O[C@H]1CC[C@]2(C)[C@H]3C[C@@H](O)[C@@H]4[C@@H]([C@](C)(O)CCCC(C)(C)O)CC[C@@]4(C)[C@]3(C)CC[C@H]2C1(C)C 4.55
5) CC[C@H](C)[C@H](N)C(=O)O[C@H]1CC[C@]2(C)[C@H]3C[C@@H](O)[C@@H]4[C@@H]([C@](C)(O)CCCC(C)(C)O)CC[C@@]4(C)[C@]3(C)CC[C@H]2C1(C)C 5.08
6) CC(C)(O)CCC[C@@](C)(O)[C@H]1CC[C@]2(C)[C@@H]1[C@H](O)C[C@@H]1[C@@]3(C)CC[C@H](O)C(C)(C)[C@@H]3CC[C@]12C 4.24
7) CC(C)(O)CCC[C@@](C)(O)[C@H]1CC[C@]2(C)[C@@H]1[C@H](O)C[C@@H]1[C@@]3(C)CC[C@H](OC(=O)[C@H](CCC(=O)OCc4ccccc4)NC(=O)OC(C)(C)C)C(C)(C)[C@@H]3CC[C@]12C 4.54
8) C[C@H](N)C(=O)O[C@@H]1C[C@@H]2[C@@]3(C)CC[C@H](O)C(C)(C)[C@@H]3CC[C@@]2(C)[C@]2(C)CC[C@H]([C@](C)(O)CCCC(C)(C)O)[C@@H]12 5.06
9) O=c1[nH]cc(F)c(=O)[nH]1 4.34
10) CC(C)(O)CCC[C@@](C)(O)[C@H]1CC[C@]2(C)[C@@H]1[C@H](O)C[C@@H]1[C@@]3(C)CC[C@H](OC(=O)[C@@H](N)CCC(=O)O)C(C)(C)[C@@H]3CC[C@]12C 5.00
11) CC(C)C[C@H](NC(=O)OC(C)(C)C)C(=O)O[C@H]1CC[C@]2(C)[C@H]3C[C@@H](O)[C@@H]4[C@@H]([C@](C)(O)CCCC(C)(C)O)CC[C@@]4(C)[C@]3(C)CC[C@H]2C1(C)C 4.39
12) CC(C)(O)CCC[C@@](C)(O)[C@H]1CC[C@]2(C)[C@@H]1[C@H](O)C[C@@H]1[C@@]3(C)CC[C@H](OC(=O)[C@H](Cc4cnc[nH]4)NC(=O)OC(C)(C)C)C(C)(C)[C@@H]3CC[C@]12C 4.55
13) CC(C)(O)CCC[C@@](C)(O)[C@H]1CC[C@]2(C)[C@@H]1[C@H](O)C[C@@H]1[C@@]3(C)CC[C@H](OC(=O)[C@H](CO)NC(=O)OC(C)(C)C)C(C)(C)[C@@H]3CC[C@]12C 4.60
